Numbers sourced from ChEMBL document CHEMBL5303573.

# System name: 3-oxo-5-alpha-steroid 4-dehydrogenase (Bacteroides thetaiotaomicron, UniProt Q8A618)
# Sequence (Q8A618 whole entry, change not shown): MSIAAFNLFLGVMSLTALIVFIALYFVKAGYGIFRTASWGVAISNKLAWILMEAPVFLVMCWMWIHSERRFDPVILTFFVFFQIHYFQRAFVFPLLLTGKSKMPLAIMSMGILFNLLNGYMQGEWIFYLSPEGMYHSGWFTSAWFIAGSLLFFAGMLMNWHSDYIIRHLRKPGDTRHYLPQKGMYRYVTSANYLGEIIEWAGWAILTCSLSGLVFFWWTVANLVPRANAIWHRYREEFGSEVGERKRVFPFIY
# Assay summary: The drug is tested on Bacteroides thetaiotaomicron strain: VPI-5482 for biotransformation. The drug concentrations were measured before and after a 12-h incubation by liquid-chromatography-coupled mass spectrometry (LC–MS)
# Type: ADME
# Design: dose 2 uM
# Recorded conditions: 2 µM
Assay endpoint: Bacterial Biotransformation

Compound | Value observed
N#Cc1ccc2c(c1)N(CCCN1CCC(O)CC1)c1ccccc1S2 | Compound NOT metabolized
CC(=O)Nc1ccc(OC(C)=O)cc1 [DIACETAMATE] | Compound NOT metabolized
C#C[C@]1(O)CC[C@H]2[C@@H]3CCC4=CC(=O)CC[C@@H]4[C@H]3CC[C@@]21CC | Compound metabolized
CCS(=O)(=O)CCn1c([N+](=O)[O-])cnc1C | Compound NOT metabolized
Nc1ccc(/N=N/c2ccccc2)c(N)n1 | Compound NOT metabolized
C#C[C@]1(OC(C)=O)CC[C@H]2[C@@H]3CCC4=CC(=O)CC[C@@H]4[C@H]3CC[C@@]21C [NORETHINDRONE ACETATE] | Compound metabolized
CCN(CC)C(=O)/C(C#N)=C/c1cc(O)c(O)c([N+](=O)[O-])c1 | Compound NOT metabolized
CC(=O)Oc1ccc(C(c2ccc(OC(C)=O)cc2)c2ccccn2)cc1 | Compound NOT metabolized
COc1ccc([C@@H]2Sc3ccccc3N(CCN(C)C)C(=O)[C@@H]2OC(C)=O)cc1 | Compound NOT metabolized

###

# Assay summary: The drug is tested on Anaerotruncus colihominis strain: DSM17241 for biotransformation. The drug concentrations were measured before and after a 12-h incubation by liquid-chromatography-coupled mass spectrometry (LC–MS)
# Recorded conditions: 2 µM
Assay endpoint: Bacterial Biotransformation

Compound | Assay endpoint | Value observed
CCN1CCCC1CNC(=O)c1cc(S(=O)(=O)CC)c(N)cc1OC (configuration not stated) [AMISULPRIDE] | Bacterial Biotransformation | Compound NOT metabolized
c1ccc2[nH]c(-c3cscn3)nc2c1 | Bacterial Biotransformation | Compound NOT metabolized
CN(C)C(=O)Oc1cc(OC(=O)N(C)C)cc(C(O)CNC(C)(C)C)c1 (configuration not stated) | Bacterial Biotransformation | Compound NOT metabolized
COC(=O)[C@H](c1ccccc1Cl)N1CCc2sccc2C1.O=S(=O)(O)O [CLOPIDOGREL BISULFATE] | Bacterial Biotransformation | Compound NOT metabolized
COC(=O)[C@H]1[C@H]2C[C@@H]3c4[nH]c5cc(OC)ccc5c4CCN3C[C@H]2C[C@@H](OC(=O)c2cc(OC)c(OC)c(OC)c2)[C@@H]1OC | Bacterial Biotransformation | Compound NOT metabolized
Cc1ccc(S(=O)(=O)NC(=O)NN2CCCCCC2)cc1 [TOLAZAMIDE] | Bacterial Biotransformation | Compound NOT metabolized
OC(Cn1cncn1)(Cn1cncn1)c1ccc(F)cc1F | Bacterial Biotransformation | Compound metabolized
COc1cc2nc(N3CCN(C(=O)C4COc5ccccc5O4)CC3)nc(N)c2cc1OC.CS(=O)(=O)O (configuration not stated) [DOXAZOSIN MESYLATE] | Bacterial Biotransformation | Compound NOT metabolized
CC(C)(C)NC(=O)[C@H]1CC[C@H]2[C@@H]3CC[C@H]4NC(=O)C=C[C@]4(C)[C@H]3CC[C@]12C [FINASTERIDE] | Bacterial Biotransformation | Compound NOT metabolized
Cc1ccc(-c2nc3ccc(C)cn3c2CC(=O)N(C)C)cc1 | Bacterial Biotransformation | Compound NOT metabolized
COc1ccc2[nH]c([S+]([O-])Cc3ncc(C)c(OC)c3C)nc2c1 (configuration not stated) | Bacterial Biotransformation | Compound metabolized
C[C@@H](c1ncncc1F)[C@](O)(Cn1cncn1)c1ccc(F)cc1F | Bacterial Biotransformation | Compound NOT metabolized
O=C(O)CCc1nc(-c2ccccc2)c(-c2ccccc2)o1 | Bacterial Biotransformation | Compound NOT metabolized
CCS(=O)(=O)CCn1c([N+](=O)[O-])cnc1C | Bacterial Biotransformation | Compound metabolized
CCN1CCCC1CNC(=O)c1cc(S(N)(=O)=O)ccc1OC (configuration not stated) [SULPIRIDE] | Bacterial Biotransformation | Compound NOT metabolized
CC(C)(C)N.CCC[C@H](N[C@@H](C)C(=O)N1[C@H](C(=O)O)C[C@@H]2CCCC[C@@H]21)C(=O)OCC | Bacterial Biotransformation | Compound NOT metabolized
CC1=C(CC(=O)O)c2cc(F)ccc2/C1=C\c1ccc([S+](C)[O-])cc1 (configuration not stated) | Bacterial Biotransformation | Compound NOT metabolized

###

# Assay summary: The drug is tested on Enterococcus faecalis strain: V583 for biotransformation. The drug concentrations were measured before and after a 12-h incubation by liquid-chromatography-coupled mass spectrometry (LC–MS)
# Recorded conditions: 2 µM
Assay endpoint: Bacterial Biotransformation

Compound | Value observed
CN(C)CCc1c[nH]c2ccc(CS(=O)(=O)N3CCCC3)cc12 [ALMOTRIPTAN] | Compound NOT metabolized
CS(=O)(=O)O.O.O.O.O=C1Cc2cc(CCN3CCN(c4nsc5ccccc45)CC3)c(Cl)cc2N1 [ZIPRASIDONE MESYLATE] | Compound NOT metabolized
OC(Cn1cncn1)(Cn1cncn1)c1ccc(F)cc1F [FLUCONAZOLE] | Compound NOT metabolized
Nc1nc2ccc(OC(F)(F)F)cc2s1 [RILUZOLE] | Compound NOT metabolized
OC(CCN1CCCCC1)(c1ccccc1)C1CCCCC1 (centres undefined) [TRIHEXYPHENIDYL] | Compound NOT metabolized
CCOC(=O)C1=C[C@]2(CC)CCCN3CCc4c(n1c1ccccc41)[C@@H]32 [VINPOCETINE] | Compound NOT metabolized
CCCCc1nc(Cl)c(CO)n1Cc1ccc(-c2ccccc2-c2nn[nH]n2)cc1 [LOSARTAN] | Compound NOT metabolized
Nc1nc(N)nc(-c2cc(Cl)ccc2Cl)n1.O=C(O)/C=C\C(=O)O [IRSOGLADINE MALEATE] | Compound NOT metabolized
Nc1nnc(-c2cccc(Cl)c2Cl)c(N)n1 [LAMOTRIGINE] | Compound NOT metabolized

###

# Recorded conditions: bifidobacterium adolescentis, 12 h, 2 µM
# Description: The drug is tested on Bifidobacterium adolescentis strain: ATCC 15703 for biotransformation. The drug concentrations were measured before and after a 12-h incubation by liquid-chromatography-coupled mass spectrometry (LC–MS)
Assay endpoint: Bacterial Biotransformation

Molecule | Value observed
CC12CC3CC(C)(C1)CC(N)(C3)C2 [MEMANTINE] | Compound NOT metabolized
CN(C)C(=O)Oc1cc(OC(=O)N(C)C)cc(C(O)CNC(C)(C)C)c1 (configuration not stated) | Compound NOT metabolized
CC(C)(C)NC[C@H](O)COc1nsnc1N1CCOCC1.O=C(O)/C=C\C(=O)O [TIMOLOL MALEATE] | Compound NOT metabolized
Clc1cccc(Cl)c1N=C1NCCN1 | Compound NOT metabolized
COc1cc2nc(N3CCN(C(=O)C4COc5ccccc5O4)CC3)nc(N)c2cc1OC.CS(=O)(=O)O (configuration not stated) [DOXAZOSIN MESYLATE] | Compound NOT metabolized
CCCCCCOC(=O)/N=C(/N)c1ccc(NCc2nc3cc(C(=O)N(CCC(=O)OCC)c4ccccn4)ccc3n2C)cc1.CS(=O)(=O)O [DABIGATRAN ETEXILATE MESYLATE] | Compound NOT metabolized

###

# Assay summary: The drug is tested on Escherichia coli strain: BW25113 for biotransformation. The drug concentrations were measured before and after a 12-h incubation by liquid-chromatography-coupled mass spectrometry (LC–MS)
# Recorded conditions: 2 µM
Non-standard residues stand in square brackets, D forms with d. Residues, ends and D or L forms follow the SMILES beside them. pGlu = O=C1CC[C@@H](C(=O)O)N1; Thz = O=C(O)[C@@H]1CSCN1

Compound | Bacterial Biotransformation
CNCC[C@H](Oc1cccc2ccccc12)c1cccs1 | Compound metabolized
CC#C[C@]1(O)CC[C@H]2[C@@H]3CCC4=CC(=O)CCC4=C3[C@@H](c3ccc(N(C)C)cc3)C[C@@]21C | Compound NOT metabolized
COC(=O)Nc1nc2ccc(C(=O)c3ccccc3)cc2[nH]1 | Compound NOT metabolized
O=C1CC[C@@H](C(=O)N2CSC[C@H]2C(=O)O)N1 [PIDOTIMOD] ([pGlu]-[Thz]-OH) | Compound NOT metabolized
CC[C@@]1(O)C(=O)OCc2c1cc1n(c2=O)Cc2cc3c(CN(C)C)c(O)ccc3nc2-1 | Compound NOT metabolized
CC1OC(OC2C(O)CC(OC3C(O)CC(OC4CCC5(C)C(CCC6C5CCC5(C)C(C7=CC(=O)OC7)CCC65O)C4)OC3C)OC2C)CC(O)C1O (centres undefined) | Compound NOT metabolized
CNCCC(Oc1ccc(C(F)(F)F)cc1)c1ccccc1 (centres undefined) | Compound metabolized
COC(=O)[C@H](c1ccccc1Cl)N1CCc2sccc2C1.O=S(=O)(O)O [CLOPIDOGREL BISULFATE] | Compound NOT metabolized
O=c1n(CCCN2CCN(c3cccc(Cl)c3)CC2)nc2ccccn12 | Compound NOT metabolized
CC(=O)OCC(=O)NCCCOc1cccc(CN2CCCCC2)c1 [ROXATIDINE ACETATE] | Compound metabolized
CN(C)CCOC(C)(c1ccccc1)c1ccccn1.O=C(O)CCC(=O)O (centres undefined) [DOXYLAMINE SUCCINATE] | Compound NOT metabolized
CC(=O)O[C@]1(C(C)=O)CC[C@H]2[C@@H]3C=C(C)C4=CC(=O)CC[C@]4(C)[C@H]3CC[C@@]21C [MEGESTROL ACETATE] | Compound metabolized
Cc1ccc(-c2nc3ccc(C)cn3c2CC(=O)N(C)C)cc1 | Compound NOT metabolized
CC(C)(C)NC[C@H](O)COc1ccccc1C1CCCC1.CC(C)(C)NC[C@H](O)COc1ccccc1C1CCCC1.O=S(=O)(O)O [PENBUTOLOL SULFATE] | Compound NOT metabolized
CN(C)CCC=C1c2ccccc2C=Cc2ccccc21 | Compound NOT metabolized
CC(=O)SCC(Cc1ccccc1)C(=O)NCC(=O)OCc1ccccc1 (centres undefined) | Compound NOT metabolized
CN1CCc2cccc3c2[C@H]1Cc1ccc(O)c(O)c1-3 | Compound NOT metabolized
Br.COc1ccc2c(c1)[C@]13CCCC[C@@H]1[C@H](C2)N(C)CC3.O [DEXTROMETHORPHAN HYDROBROMIDE] | Compound NOT metabolized
CC(NC(C)(C)C)C(=O)c1cccc(Cl)c1 (centres undefined) | Compound metabolized
CCCCC(=O)N(Cc1ccc(-c2ccccc2-c2nnn[nH]2)cc1)[C@H](C(=O)O)C(C)C | Compound NOT metabolized
CN1CCc2c(c3ccccc3n2Cc2ccccc2)C1.CN1CCc2c(c3ccccc3n2Cc2ccccc2)C1.O=S(=O)(O)c1cccc2c(S(=O)(=O)O)cccc12 | Compound NOT metabolized
CC(C)c1c(CN(C)C(C)Cc2ccccc2)n(C)n(-c2ccccc2)c1=O (centres undefined) | Compound NOT metabolized
CC(C)NCC(O)c1ccc(NS(C)(=O)=O)cc1 (centres undefined) | Compound NOT metabolized
COc1ccc(/C=C/C(=O)Nc2ccccc2C(=O)O)cc1OC | Compound NOT metabolized
Nc1nnc(-c2cccc(Cl)c2Cl)c(N)n1 | Compound NOT metabolized
CC(=O)OCC(=O)[C@@]12N=C(C)O[C@@H]1C[C@H]1[C@@H]3CCC4=CC(=O)C=C[C@]4(C)[C@H]3[C@@H](O)C[C@@]12C | Compound metabolized
CC(=O)OCC(=O)[C@@]1(O)[C@@H](C)C[C@H]2[C@@H]3CCC4=CC(=O)C=C[C@]4(C)[C@@]3(F)[C@@H](O)C[C@@]21C [BETAMETHASONE ACETATE] | Compound NOT metabolized
CCOc1ccc(NC(C)=O)cc1 | Compound NOT metabolized
CCc1nn(CCCN2CCN(c3cccc(Cl)c3)CC2)c(=O)n1CCOc1ccccc1 | Compound NOT metabolized
COC(=O)C1=C(C)NC(C)=C(C(=O)OC(C)C)C1c1cccc2nonc12 (centres undefined) | Compound NOT metabolized
COc1ccc2[nH]c([S+]([O-])Cc3ncc(C)c(OC)c3C)nc2c1 (centres undefined) | Compound metabolized
OC(Cn1cncn1)(Cn1cncn1)c1ccc(F)cc1F | Compound NOT metabolized
COc1cc(NC(C)CCCN)c2ncccc2c1.O=P(O)(O)O.O=P(O)(O)O (centres undefined) [PRIMAQUINE PHOSPHATE] | Compound metabolized
CCOc1ccc2nc(S(N)(=O)=O)sc2c1 [ETHOXZOLAMIDE] | Compound metabolized
